FYI, the data here is from patent US20240228562A1.

Target: T1, Rat CTGF (Rattus norvegicus, UniProt Q9R1E9)
T1 construct: purchased R&D Systems
T1 sequence (Q9R1E9 25-347): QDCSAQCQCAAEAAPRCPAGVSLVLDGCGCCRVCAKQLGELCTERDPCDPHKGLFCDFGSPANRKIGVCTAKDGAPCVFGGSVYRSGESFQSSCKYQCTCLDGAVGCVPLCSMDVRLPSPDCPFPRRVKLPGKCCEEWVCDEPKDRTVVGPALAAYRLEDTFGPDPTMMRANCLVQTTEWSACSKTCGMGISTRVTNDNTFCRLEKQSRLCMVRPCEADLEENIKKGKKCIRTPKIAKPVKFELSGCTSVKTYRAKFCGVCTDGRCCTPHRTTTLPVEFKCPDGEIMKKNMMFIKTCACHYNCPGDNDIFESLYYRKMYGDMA
Experiment: SPR binding kinetics and affinity, rat CTGF
Conditions: 25° C., 1:1 binding model
Experimental: Surface plasmon resonance (SPR) was used to measure binding kinetics and affinity of the representative lipocalin muteins disclosed herein. The binding of exemplary lipocalin muteins to human (Creative Biomart), cynomolgus, rat (R&D Systems) and mouse CTGF (Abbexa) was determined by SPR using a Biacore instrument (Cytiva, formerly GE Healthcare). […] The values determined for kon, koff and the resulting equilibrium dissociation constant (KD) for exemplary lipocalin muteins are summarized in Table 4.
readout type: Kd (nM)
Numbers only here, please. The scale is nM.

molecule: SEQ ID NO: 7: parent CTGF-binding hNGAL lipocalin mutein (protein, lipocalin mutein) QDSTSDLIPAPPLSKVPLQQNFQDNQFHGKWYVVGLAGNYGLRTDKRPSKMFATIYELKEDKSYDVTSVRFEQERCHYTIRTFVPGSQPGEFTTGSIKSRPGQTSSLVRVVSTNYNQHAMVFFKSVIQNREYFAITLYGRTKELTSELKENFIRFSKSLGLPENHIVFPVPIDQCIDG
Kd (nM): 62.8

IN: Report Kd for SEQ ID NO: 29: parent CTGF-binding hNGAL lipocalin mutein (protein, lipocalin mutein) QDSTSDLIPAPPLSKVPLQQNFQDNQFHGKWYVVGWAGNIKLREDKDPFKMSATIYELKEDKSYNVTEVVFEQKKCHYIIKTFVPGSQPGEFTLGDIKSPPGETSSLVRVVSTNYNQHAMVFFKKVFQNREFFWITLYGRTKELTSELKENFIRFSKSLGLPENHIVFPVPIDQCIDG please.
OUT: 18
